test.system: UniProtKB P22303
Sequence (P22303 32-614, species assumed): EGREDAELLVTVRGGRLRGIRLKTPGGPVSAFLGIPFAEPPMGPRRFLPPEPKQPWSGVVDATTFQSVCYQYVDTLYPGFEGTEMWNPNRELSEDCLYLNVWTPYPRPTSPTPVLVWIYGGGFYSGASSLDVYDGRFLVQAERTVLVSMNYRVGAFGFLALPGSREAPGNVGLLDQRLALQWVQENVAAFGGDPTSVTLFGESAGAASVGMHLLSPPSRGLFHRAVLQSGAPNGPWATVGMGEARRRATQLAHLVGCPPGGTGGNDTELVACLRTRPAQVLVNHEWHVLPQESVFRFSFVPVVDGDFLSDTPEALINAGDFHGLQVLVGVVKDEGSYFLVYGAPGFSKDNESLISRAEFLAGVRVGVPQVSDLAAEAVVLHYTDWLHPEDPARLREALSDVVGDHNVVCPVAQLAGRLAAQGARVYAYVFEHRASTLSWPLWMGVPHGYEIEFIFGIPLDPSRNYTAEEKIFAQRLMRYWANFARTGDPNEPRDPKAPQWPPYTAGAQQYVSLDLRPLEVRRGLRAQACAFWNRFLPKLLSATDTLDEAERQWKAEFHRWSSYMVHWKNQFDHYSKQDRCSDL
assay.comment: Inhibition of acetylcholinesterase activity by honokiol and 4-O-methylhonokiol (modified Ellman's method)
Type: biochemical
applied.conditions: 5 minutes of reaction at 25° C., pH 8.0
Procedure: Acetylcholinesterase activity was analyzed by the modified Ellman's method [Ellman G. L., et al., Biochem. Pharmacol. 7, 88-95, 1961]. […] After 5 minutes of reaction at 25° C., absorbance was measured at 412 nm. The inhibition of acetylcholinesterase activity was calculated by the following equation. […] ODb: absorbance of untreated reaction solution at 412 nm; ODs: absorbance of treated reaction solution at 412 nm; and ODc: absorbance of control at 412 nm.
recorded.endpoint: pIC50
pIC50 field: float, defined as -log10 of concentration (mol/L).

{"compound.string": "C=CCc1ccc(O)c(-c2ccc(O)c(CC=C)c2)c1", "pIC50": 6.60}

Would you kindly look at the next entry?
## Input State the recorded pIC50 for this entry: C=CCc1ccc(O)c(-c2ccc(OC)c(CC=C)c2)c1
## Output 8.92
